Data provenance: ChEMBL document CHEMBL1201861

test system: SW626; experiment: cells; type: functional, cell-based, Homo sapiens; conditions: Homo sapiens, SW626;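 note: growth inhibition of SW626 cells, measured with a cell viability assay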
Description: SANGER: Inhibition of human SW626 cell growth in a cell viability assay.
measured property: pIC50
Remember, pIC50 is on a log scale: it is -log10 of the molar concentration.

Example entries begin here.
INSERT INTO measurements (compound, test_target, measured_value) VALUES
  ('COc1cc(F)c(F)c(Nc2ccc(I)cc2F)c1NS(=O)(=O)C1(CC(O)CO)CC1 (configuration not stated)', 'SW626', 6.55),
  ('COC(=O)CNC(=O)C(=O)OC', 'SW626', 2.74),
  ('CCC1=C[C@@H]2CN(C1)Cc1c([nH]c3ccccc13)[C@@](C(=O)OC)(c1cc3c(cc1OC)N(C)[C@H]1[C@@](O)(C(=O)OC)[C@H](OC(C)=O)[C@]4(CC)C=CCN5CC[C@]31[C@@H]54)C2', 'SW626', 7.42);

Please turn your attention to the following entry.
Ask: Would you kindly share the measured pIC50 for C=CCNC1=C2C[C@@H](C)C[C@H](OC)[C@H](O)[C@@H](C)/C=C(\C)[C@H](OC(N)=O)[C@@H](OC)/C=C\C=C(/C)C(=O)NC(=CC1=O)C2=O ?
Result: 6.47

* * *

test system: EHEB; assay: cells; type: functional, cell-based; conditions: Homo sapiens
Description: SANGER: Inhibition of human EHEB cell growth in a cell viability assay.
pIC50: −log10 of the molar value.
measured property: pIC50

INSERT INTO measurements (given_smiles, measured_value) VALUES
  ('COC(=O)CNC(=O)C(=O)OC', 3.57);

Ask: Find the measured pIC50: item Cn1cncc1[C@@](N)(c1ccc(Cl)cc1)c1ccc2c(c1)c(-c1cccc(Cl)c1)cc(=O)n2C , target or system EHEB.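 Note: growth inhibition of human EHEB cells, read out with a cell viability assay.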
Result: < 4.80

Ask: Another molecule to look at: Cc1cnc(-c2cnc(NCCNc3ccc(C#N)cn3)nc2-c2ccc(Cl)cc2Cl)[nH]1
Result: < 5.59

* * *

test system: TGBC11TKB; test: cells; type: functional, cell-based; conditions: Homo sapiens;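 note: growth inhibition of human TGBC11TKB cells, measured by a cell viability assay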
Description: SANGER: Inhibition of human TGBC11TKB cell growth in a cell viability assay.
Listed here: items and their measured IC50.

INSERT INTO results (molecule, measured_property, measured_value) VALUES
  ('O=C(c1cc(Cc2n[nH]c(=O)c3ccccc23)ccc1F)N1CCN(C(=O)C2CC2)CC1 [OLAPARIB]', 'IC50', '> 5 µM');

Please turn your attention to the following entry.
Ask: Would you kindly share the measured IC50 for Cn1cc(C2=C(c3ccc(Cl)cc3Cl)C(=O)NC2=O)c2ccccc21 [SB-216763] ?
Result: > 10 µM

* * *

Listed here: items and their measured IC50.
tested on: SCC-3; experiment: cells; type: functional, cell-based; details: Homo sapiens;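 note: cell viability assay measuring inhibition of SCC-3 cell growth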
Description: SANGER: Inhibition of human SCC-3 cell growth in a cell viability assay.

Example entries begin here.
INSERT INTO measurements (compound, measured_property, measured_value) VALUES
  ('CN(c1ncccc1CNc1nc(Nc2ccc3c(c2)CC(=O)N3)ncc1C(F)(F)F)S(C)(=O)=O', 'IC50', '> 2.56 µM'),
  ('C[C@]1(O)C[C@@H](c2nc(-c3ccc4ccc(-c5ccccc5)nc4c3)c3c(N)nccn32)C1', 'IC50', '> 2.56 µM'),
  ('COc1cc([C@@H]2c3cc4c(cc3[C@@H](O[C@@H]3O[C@@H]5CO[C@@H](C)O[C@H]5[C@H](O)[C@H]3O)[C@H]3COC(=O)[C@H]23)OCO4)cc(OC)c1O [ETOPOSIDE]', 'IC50', '1.21 µM');

Ask: Would you kindly share the measured IC50 for Cc1cc(Nc2cc(N3CCN(C)CC3)nc(Sc3ccc(NC(=O)C4CC4)cc3)n2)n[nH]1 ?
Result: > 2 µM

Ask: Another compound to look at: Cc1cc([C@@H](C)Nc2ccccc2C(=O)O)c2nc(N3CCOCC3)cc(=O)n2c1
Result: > 5.12 µM

Ask: Another compound to look at: CCC1=C[C@@H]2CN(C1)Cc1c([nH]c3ccccc13)[C@@](C(=O)OC)(c1cc3c(cc1OC)N(C)[C@H]1[C@@](O)(C(=O)OC)[C@H](OC(C)=O)[C@]4(CC)C=CCN5CC[C@]31[C@@H]54)C2
Result: > 0.064 µM

Ask: Another compound to look at: C=C1C(=O)O[C@@H]2C3O[C@]3(C)CC/C=C(\C)CC[C@@H]12 (some centres not stated)
Result: 2.8 µM

* * *

system: SK-MM-2; assay: cells; format: functional, cell-based; conditions: Homo sapiens
Description: SANGER: Inhibition of human SK-MM-2 cell growth in a cell viability assay.
Listed here: items and their measured IC50.

INSERT INTO measurements (given_smiles, measured_property, measured_value) VALUES
  ('Cn1cncc1[C@@](N)(c1ccc(Cl)cc1)c1ccc2c(c1)c(-c1cccc(Cl)c1)cc(=O)n2C', 'IC50', '> 16 µM'),
  ('CCC1=C[C@@H]2CN(C1)Cc1c([nH]c3ccccc13)[C@@](C(=O)OC)(c1cc3c(cc1OC)N(C)[C@H]1[C@@](O)(C(=O)OC)[C@H](OC(C)=O)[C@]4(CC)C=CCN5CC[C@]31[C@@H]54)C2', 'IC50', '> 0.064 µM'),
  ('CN1CCN(CCOc2cc(OC3CCOCC3)c3c(Nc4c(Cl)ccc5c4OCO5)ncnc3c2)CC1', 'IC50', '> 2 µM'),
  ('COC(=O)CNC(=O)C(=O)OC', 'IC50', '101 µM'),
  ('Cc1cnc(-c2cnc(NCCNc3ccc(C#N)cn3)nc2-c2ccc(Cl)cc2Cl)[nH]1', 'IC50', '> 2.56 µM');

Ask: Would you kindly share the measured IC50 for CN(c1ncccc1CNc1nc(Nc2ccc3c(c2)CC(=O)N3)ncc1C(F)(F)F)S(C)(=O)=O ?
Result: > 2.56 µM

Ask: Another compound to look at: Cc1ccc(Nc2nccc(N(C)c3ccc4c(C)n(C)nc4c3)n2)cc1S(N)(=O)=O
Result: > 8 µM

* * *

test system: MZ7-mel; experiment: cells; assay type: functional, cell-based, Homo sapiens; conditions: mz7-mel
Description: SANGER: Inhibition of human MZ7-mel cell growth in a cell viability assay.
pIC50: −log10 of the molar value.
measured property: pIC50

Ask: Would you kindly share the measured pIC50 for Cc1cc([C@@H](C)Nc2ccccc2C(=O)O)c2nc(N3CCOCC3)cc(=O)n2c1 ?
Result: < 5.29

* * *

tested on: HCC1599; assay: cells; format: functional, cell-based; conditions: Homo sapiens;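 note: growth inhibition of HCC1599 cells, read out in a cell viability assay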
Description: SANGER: Inhibition of human HCC1599 cell growth in a cell viability assay.
measured property: IC50

INSERT INTO measurements (given_smiles, measured_value) VALUES
  ('Cc1cnc(-c2cnc(NCCNc3ccc(C#N)cn3)nc2-c2ccc(Cl)cc2Cl)[nH]1', '> 2560 nM'),
  ('COC(=O)CNC(=O)C(=O)OC', '129000 nM'),
  ('Cn1cncc1[C@@](N)(c1ccc(Cl)cc1)c1ccc2c(c1)c(-c1cccc(Cl)c1)cc(=O)n2C', '> 16000 nM'),
  ('CC1=C2C[C@H]3[C@@H](CC=C4C[C@@H](O)CC[C@@]43C)[C@@H]2CC[C@]12O[C@@H]1C[C@H](C)CN[C@H]1[C@H]2C', '> 16000 nM'),
  ('Cc1cc(Nc2cc(N3CCN(C)CC3)nc(Sc3ccc(NC(=O)C4CC4)cc3)n2)n[nH]1', '809 nM'),
  ('CNC(=O)c1cc(Oc2ccc(NC(=O)Nc3ccc(Cl)c(C(F)(F)F)c3)cc2)ccn1', '> 4000 nM');

Ask: Would you kindly share the measured IC50 for CO[C@H]1C[C@@H]2CC[C@@H](C)[C@@](O)(O2)C(=O)C(=O)N2CCCC[C@H]2C(=O)O[C@H]([C@H](C)C[C@@H]2CC[C@@H](O)[C@H](OC)C2)CC(=O)[C@H](C)/C=C(\C)[C@@H](O)[C@@H](OC)C(=O)[C@H](C)C[C@H](C)/C=C/C=C/C=C/1C ?
Result: > 100 nM

Ask: Another compound to look at: CS(=O)(=O)CCNCc1ccc(-c2ccc3ncnc(Nc4ccc(OCc5cccc(F)c5)c(Cl)c4)c3c2)o1
Result: > 2000 nM

Ask: Another compound to look at: C[C@]1(O)C[C@@H](c2nc(-c3ccc4ccc(-c5ccccc5)nc4c3)c3c(N)nccn32)C1
Result: > 2560 nM

* * *

Listed here: items and their measured IC50.
tested on: NB1; assay: cells; type: functional, cell-based; details: Homo sapiens
Description: SANGER: Inhibition of human NB1 cell growth in a cell viability assay.

INSERT INTO measurements (molecule, measured_property, measured_value) VALUES
  ('CNC(=O)c1cc(Oc2ccc(NC(=O)Nc3ccc(Cl)c(C(F)(F)F)c3)cc2)ccn1', 'IC50', '> 4 µM'),
  ('CO[C@H]1C[C@@H]2CC[C@@H](C)[C@@](O)(O2)C(=O)C(=O)N2CCCC[C@H]2C(=O)O[C@H]([C@H](C)C[C@@H]2CC[C@@H](O)[C@H](OC)C2)CC(=O)[C@H](C)/C=C(\C)[C@@H](O)[C@@H](OC)C(=O)[C@H](C)C[C@H](C)/C=C/C=C/C=C/1C', 'IC50', '> 0.1 µM'),
  ('Cn1cncc1[C@@](N)(c1ccc(Cl)cc1)c1ccc2c(c1)c(-c1cccc(Cl)c1)cc(=O)n2C', 'IC50', '> 16 µM'),
  ('CC1=C2C[C@H]3[C@@H](CC=C4C[C@@H](O)CC[C@@]43C)[C@@H]2CC[C@]12O[C@@H]1C[C@H](C)CN[C@H]1[C@H]2C', 'IC50', '> 16 µM');

Please turn your attention to the following entry.
Ask: Find the measured IC50: item CS(=O)(=O)CCNCc1ccc(-c2ccc3ncnc(Nc4ccc(OCc5cccc(F)c5)c(Cl)c4)c3c2)o1 , target or system NB1.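 Note: reduction of NB1 cell proliferation, read out with a viability assay.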
Result: > 2 µM
